System: Escherichia coli TOP10;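 also: peptides expressed intracellularly from a pBAD plasmid library in pooled LB shake-flask culture, induced with 0.3% L-arabinose, DNA abundance read by NGS, three biological replicates, DESeq2 with apeglm shrinkage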
Experiment: shrunken log2 fold change of peptide-encoding DNA abundance (4.5 h post-induction vs induction); higher = less antimicrobial activity (less host growth inhibition)
Settings: time post-induction: 4.5 h; library: site-saturation at positions 5, 18, 19, 20
quantity name: shrunken log2 fold change
Give the figure by itself; no unit, no explanation.

Sample records with shrunken log2 fold change:
| chain | reading |
| --- | --- |
| RRIRQRPPRLPRPRPRPQEDPRP | -0.0264 |
| RRIRHRPPRLPRPRPRPGNNPRP | -0.00857 |
| RRIRARPPRLPRPRPRPVQKPRP | 0.198 |

Summary for this sequence, RRIRHRPPRLPRPRPRPHQVPRP : shrunken log2 fold change is -0.00848

Summary for this sequence, RRIRCRPPRLPRPRPRPQHYPRP : shrunken log2 fold change is -0.796

Summary for this sequence, RRIRCRPPRLPRPRPRPIEKPRP : shrunken log2 fold change is -0.0167

Summary for this sequence, RRIRHRPPRLPRPRPRPDRWPRP : shrunken log2 fold change is 0.255

Summary for this sequence, RRIRGRPPRLPRPRPRPYYEPRP : shrunken log2 fold change is 0.0278
